Biological target: Alpha-2C adrenergic receptor (Homo sapiens)
Experiment: compounds altering alpha2C-coupled GIRK flux – cell-based, HEK293 alpha2C/GIRK1/2, thallium flux, primary screen (AID 624);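 note: slope of fluorescence ratio to pre-addition baseline per second over 15 to 24 s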
Details: thallium flux BTC fluorescence, at 10 µM, actives lie on both sides
Lab note: compare slope against 0.006. Equal or greater, write True. Smaller, write False.

molecule=COc1cccc(NC(=O)c2ccco2)c1 class_name=False
molecule=O=C(O)CN1C(=O)CNC1=O class_name=False
molecule=COc1ccc(Cl)cc1S(=O)(=O)N1CCN(c2ccc(F)cc2)CC1 class_name=False
molecule=COc1ccc(CC(=O)NC2CCN(CC(=O)Nc3ccc4c(c3)OCCO4)CC2)cc1OC class_name=False
molecule=COC(=O)c1ccc(C)c(NS(=O)(=O)c2ccc3c(c2)OCCO3)c1 class_name=False
molecule=CC(C)Cc1nc(S(=O)(=O)c2ccc(Cl)cc2)c(N2CCOCC2)o1 class_name=False
molecule=Cc1c(NC(=O)CCc2ccc(S(=O)(=O)N3CCOCC3)cc2)c(=O)n(-c2ccccc2)n1C class_name=True
molecule=Cc1csc2ncc(C(=O)Nc3ccccc3Cl)c(=O)n12 class_name=True
molecule=COc1ccc(N2CCN(Cc3nc4c(c(=O)[nH]c(=O)n4C)n3CC(C)=O)CC2)cc1 class_name=False
molecule="CC(C)CN(C(=O)COC(=O)Cc1n[nH]c(=O)c2ccccc12)C1CCS(=O)(=O)C1 (stereo not drawn)" class_name=False
molecule=Cc1occc1-c1nnc(SCC(=O)N2CCc3ccccc32)o1 class_name=True
molecule=O=S(=O)(NC1CCCC1)c1ccc(S(=O)(=O)N2CCc3ccccc32)cc1 class_name=False
molecule=CCOC(=O)N1CCN(C(=O)COc2ccc(S(=O)(=O)NC3CCCCC3)cc2C)CC1 class_name=False
molecule=O=C(Nc1ccc2c(c1)OCCO2)c1ccco1 class_name=True
molecule=C=CCOc1ccc(/C(CC)=N/O)c(OC)c1 class_name=False
molecule=C/C(N)=C(/C#N)C(=O)COC(=O)c1cc(C)n(-c2ccc(F)cc2)c1C class_name=False
molecule=CCOc1ccccc1C(=O)NCc1ccc2c(c1)OCO2 class_name=False
molecule="CC(=O)NC(CCS(C)(=O)=O)C(=O)Nc1cc(C)on1 (stereo not drawn)" class_name=True
molecule=Cc1ccc(C)c(N2CCN(S(=O)(=O)c3ccc4c(c3)OCCO4)CC2)c1 class_name=True
molecule="CCCCCC1CC(CC(C)C(=O)Nc2nncs2)C(=O)O1 (stereo not drawn)" class_name=True
molecule=Cc1nnc(SCC(=O)N2CCC(C(=O)Nc3nccs3)CC2)n1Cc1ccccc1 class_name=False
molecule=CCOC(=O)N1CCN(C(=O)c2n[nH]c(=O)c3ccccc23)CC1 class_name=False
molecule=Cn1c(COc2ccc(Cl)cc2)nnc1SCC(=O)NC1CCCCC1 class_name=False
molecule=CCCCCn1c(CCNC(=O)CCC)nc2ccccc21 class_name=True
molecule="CCC(Sc1ncccc1C(=O)O)C(=O)N1CCCC1 (stereo not drawn)" class_name=False
molecule=CC1CCN(CCn2c(=S)[nH]c3ncccc3c2=O)CC1 class_name=False
molecule=CCOC(=O)c1ccccc1NC(=O)CSc1nnc(COc2ccccc2C)n1C class_name=False
molecule="COC(=O)C1=C(CSCc2ccco2)NC(=O)NC1c1cc(C)ccc1C (stereo not drawn)" class_name=False
molecule=COC(=O)CSc1nnc(-c2ccncc2)o1 class_name=False
molecule=CCOc1cc(/C=N/n2cnnc2)cc(Br)c1O class_name=False
molecule="Cc1cc(C)c(NC(=O)C2CSCCS2)c(C)c1 (stereo not drawn)" class_name=False
molecule=Cc1noc(C)c1COc1cccc(C(=O)Nc2ccc(C#N)cc2)c1 class_name=False
molecule=CC(C)Cn1c(N)c(C(=O)COC(=O)c2cc(-c3ccco3)nc3ccccc23)c(=O)n(C)c1=O class_name=False
molecule=O=C(c1ccc(CNS(=O)(=O)c2cccc(C(F)(F)F)c2)cc1)N1CCOCC1 class_name=False
molecule=O=C(CCCC(=O)OCC(=O)NC1CCCC1)Nc1ccccn1 class_name=False
molecule=COc1cccc(C(=O)Nc2ccc(C)cc2)c1 class_name=True
